Just for reference, PubChem BioAssay (NCI) is where these values come from.

Experiment: NCI Yeast Anticancer Drug Screen. Data for the mec2-1 strain (AID 157)
Details: S. cerevisiae mec2-1 strain, at 50.0 µM, hits give high values
Procedure: Growth inhibition of yeast strains with defined genetic alterations is measured as a screen for potential anti-cancer activity. Selected strains with alterations in DNA damage repair or cell cycle control were exposed to compounds and growth inhibition was measured relative to vehicle treated controls. The strain used in this assay is mec2-1
About 79,000 compounds went through this panel and 15% of them were active in at least one assay; those are over-represented in the sample as a whole.

compound: CCOc1c(OC)ccc(/C(C)=N\O)c1OCC
growth inhibition (%): 0.65
//
compound: Cc1ccc(S(=O)(=O)N2CC(CCl)N(S(=O)(=O)c3ccc(C)cc3)CC2CCl)cc1 (stereo unspecified)
growth inhibition (%): 7.45
//
compound: COc1ccc2c(Cc3ccccc3O)cncc2c1O
growth inhibition (%): 2.25
//
compound: NS(=O)(=O)c1ccc(NC(=S)/N=C\c2c(O)[nH]c(=O)[nH]c2=O)cc1
growth inhibition (%): -16.3
//
compound: CCC(C)NC(=O)c1ccc(Cl)cc1Cl (stereo unspecified)
growth inhibition (%): -18.5
//
compound: CC(C)(C)C(O)CC(O)(C(F)(F)F)C(F)(F)F (stereo unspecified)
growth inhibition (%): -21.1
//
compound: COc1ccc(/C=C2/CSCC3=C2NC(=S)NC3c2ccc(OC)c(OC)c2OC)c(OC)c1OC (stereo unspecified)
growth inhibition (%): 13.9
//
compound: C(=C\c1ccc(-c2ccccc2)cn1)/c1ccccc1
growth inhibition (%): -15.8
//
compound: CN(C)c1ccccc1C(=O)N/N=C/c1ccc(F)cc1
growth inhibition (%): -31.3
//
compound: COC(=O)c1c(-c2ccccc2)cn(C)c1C
growth inhibition (%): 9.95
//
compound: O=C1C2=Cc3ccccc3CCN2c2ccc([N+](=O)[O-])cc21
growth inhibition (%): 5.35

====

Assay: NCI Yeast Anticancer Drug Screen. Data for the mec2-1 strain (AID 157)
Conditions: S. cerevisiae mec2-1 strain, at 50.0 µM
The panel holds about 79,000 compounds, 15% with a hit somewhere; the sample as a whole holds those more often. Active and inactive are the calls of the source. Rule as the data show it: active = growth inhibition above about 70%; inactive = the rest.
Outcomes: active, inactive

molecule: Cc1ccc(S(=O)(=O)N2CC(O)C=Cc3ccccc32)cc1 (stereo unspecified)
assigned.label: inactive
--
molecule: CCCc1cc2c(cc1CSc1ccccc1C(=O)O)OCO2
assigned.label: inactive
--
molecule: CC(=O)OCc1cc(Cl)c(OC(C)=O)c(COC(C)=O)c1
assigned.label: inactive
--
molecule: CCC(C)C(=O)OC1C(=O)OC2CC3C(C)=CC(=O)C(O)C3(C)C3C4(O)OCC23C1C(C)C4O (stereo unspecified)
assigned.label: active
--
molecule: CC/C(=C(\CC)c1ccc(OC2C=CCCC2)cc1)c1ccc(OC2C=CCCC2)cc1 (stereo unspecified)
assigned.label: inactive
--
molecule: CC(=O)NC1C(OCc2ccccc2)OC(COC(=O)CCCCCCCCCCNc2ccc([N+](=O)[O-])c3[nH]c4ccccc4c(=O)c23)C(O)C1OC(C)C(=O)NC(C)C(=O)NC(CCC(N)=O)C(=O)OCc1ccccc1 (stereo unspecified)
assigned.label: inactive
--
molecule: CCc1c(Sc2ccccn2)n(COCc2ccccc2)c(=O)[nH]c1=O
assigned.label: inactive
--
molecule: COC(=O)C1=C(C(=O)OC)N(C(C)C)[C@H]2C(C(=O)OC)=C(C(=O)OC)N(C(C)C)[C@@H]12
assigned.label: inactive
--
molecule: CC1=c2c(oc3cc(O)c(Nc4c(C)cc(O)cc4O)c(C)c23)=CC(=O)C1=Nc1c(C)cc(O)cc1O
assigned.label: inactive
--
molecule: COCCCN1COCC(COc2ccc(Cl)cc2)OC1 (stereo unspecified)
assigned.label: inactive
--
molecule: COc1ccc(OC)c(NC(=O)Oc2cc(C)c(Cl)c(C)c2)c1
assigned.label: inactive
--
molecule: Cc1cccc(N/N=C2\CCSc3ccccc32)c1
assigned.label: inactive
--
molecule: CSc1cccc(N)c1
assigned.label: inactive
--
molecule: COc1nc2[nH]ccc2c(=O)n1C
assigned.label: inactive
--
molecule: COc1ccn(C2OC(=O)C(C)(C)C2=O)c(=O)n1 (stereo unspecified)
assigned.label: inactive
--
molecule: Cc1ccc(C2=C(c3ccc(C)cc3)CS(=O)(=O)C2)cc1
assigned.label: inactive
--
molecule: CC1=CC[C@](C)(O)[C@@]2(C)CC[C@H]3C(=C(C)C)C(=O)C[C@]3(C)C[C@H]12
assigned.label: inactive
--
molecule: Cc1cc(C)c(NC(=O)c2cc(C(=O)O)c(C(=O)Nc3c(C)cc(C)cc3C)cc2C(=O)O)c(C)c1
assigned.label: inactive
--
molecule: O=c1c(Cl)c(-c2cccc3ccccc23)oc2ccccc12
assigned.label: inactive
--
molecule: OCCCNCc1ccccc1
assigned.label: inactive
--
molecule: N#Cc1c(-c2ccccc2)nc(-c2ccccc2)sc1=S
assigned.label: inactive

====

Test: NCI Yeast Anticancer Drug Screen. Data for the cln2 rad14 strain (AID 165);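 note: 0% = growth equal to vehicle treated cultures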
Conditions: S. cerevisiae cln2 rad14 strain, at 50.0 µM, hits give high values
Compounds without any hit were thinned out: in the full panel of roughly 79,000, 15% have a hit.
outcome.measure: growth inhibition (%)

compound: CC(C)CC1N=C(OCc2ccccc2)OC1=O (configuration not stated)
outcome.measure: growth inhibition
unit.descriptor: %
assay.result: -15.7
//
compound: CCC(CC)(C[NH-])C[NH-].[Cl][Pt+2][Cl]
outcome.measure: growth inhibition
unit.descriptor: %
assay.result: 16.2
//
compound: Cn1c(=O)c2c(nc(N/N=C/c3ccccc3C(=O)O)n2C)n(C)c1=O
outcome.measure: growth inhibition
unit.descriptor: %
assay.result: 12.3
//
compound: C1CCC(N(CCN(C2CCCCC2)C2CCCCC2)C2CCCCC2)CC1
outcome.measure: growth inhibition
unit.descriptor: %
assay.result: 15.3
//
compound: NC(=O)OCc1c(-c2ccccc2)nn(-c2ccccc2)c1COC(N)=O
outcome.measure: growth inhibition
unit.descriptor: %
assay.result: -19.6
//
compound: O=c1c2c(c(=O)c(=O)c1=O)Nc1ccccc1N2
outcome.measure: growth inhibition
unit.descriptor: %
assay.result: 34.7
//
compound: C/C(CC(=O)N(C(C)C)C(C)C)=N\NC(=O)c1ccncc1
outcome.measure: growth inhibition
unit.descriptor: %
assay.result: 18.7
//
compound: CN1C/C(=C\C=C\c2ccccc2)C(=O)/C(=C/C=C/c2ccccc2)C1
outcome.measure: growth inhibition
unit.descriptor: %
assay.result: 11.8
//
compound: CCOC(=O)Sc1nccn1C
outcome.measure: growth inhibition
unit.descriptor: %
assay.result: -4.7
//
compound: COc1ccc(C(=Nc2ccc(C)cc2)c2ccccc2)cc1
outcome.measure: growth inhibition
unit.descriptor: %
assay.result: -43.6
//
compound: OCC1OC(O)C(N=Cc2ccc3c(c2)OCO3)C(O)C1O (configuration not stated)
outcome.measure: growth inhibition
unit.descriptor: %
assay.result: 1.45
//
compound: O=C(NNC(=O)c1ccc([N+](=O)[O-])cc1)c1ccccc1
outcome.measure: growth inhibition
unit.descriptor: %
assay.result: -30.1

====

Assay: NCI Yeast Anticancer Drug Screen. Data for the bub3 strain (AID 167)
Conditions: S. cerevisiae bub3 mutant strain, at 50.0 µM, hits give high values
This is part of a sample that, as a whole, favours compounds with a hit. Of some 79,000 tested, about 15% had one in any assay.

compound: COc1ccc(Nc2ccnc(N)n2)cc1
growth inhibition / %: 14.2
--
compound: O=C1NS(=O)(=O)c2cc(Cl)ccc21
growth inhibition / %: -1.85
--
compound: Nc1ccccc1S(=O)O
growth inhibition / %: -25.9
--
compound: CCCCCCCC(N)C(=O)O (centres undefined)
growth inhibition / %: -10.1
--
compound: N#CC1(Nc2ccc(-c3ccc(NC4(C#N)CCCC4)cc3)cc2)CCCC1
growth inhibition / %: -2.55
--
compound: c1ccc(-c2c(-c3ccc4c(c3)OCO4)c(-c3ccc4c(c3)OCO4)c(-c3ccccc3)c3ccccc23)cc1
growth inhibition / %: -1.95
--
compound: CC(=O)c1ccc2c(ccc3ccccc32)c1O
growth inhibition / %: -2.45
--
compound: CCCOC(=O)c1cc(C(=CCC[C@H]2CC[C@@]3(C)[C@@H](CC[C@@H]4[C@@H]3CC[C@]3(C)[C@@H](C(C)CCCC(C)C)CC[C@@H]43)C2)c2cc(Cl)c(O)c(C(=O)OCCC)c2)cc(Cl)c1O (some centres undefined)
growth inhibition / %: -4.05
--
compound: O=C1OCC(O)C(O)C(O)C(O)C1O (centres undefined)
growth inhibition / %: 38.4
--
compound: CCCCOC(=O)C(C)OC(=O)OC (centres undefined)
growth inhibition / %: -15.7
--
compound: CCCCCCCCS(N)(=O)=O
growth inhibition / %: -2.55
--
compound: COC1CCC2(C)C3CCC4C(=CCC5C(C)(C)C(O)CCC45C)CC3(C)CCC2C1(C)C (centres undefined)
growth inhibition / %: 1.2
--
compound: O=C(Nc1ncccn1)c1ccc(Cl)cc1Cl
growth inhibition / %: 10.6
--
compound: Cc1ccc(NS(=O)(=O)c2ccc(F)cc2)cc1Cl
growth inhibition / %: 99.6
--
compound: [Cl][Mn][Cl]
growth inhibition / %: -4.75
--
compound: O=C(O)CCCC1CCC2NC(=O)NC2C1 (centres undefined)
growth inhibition / %: 16.5
--
compound: CC(=O)NNc1nc(C)c(C(=O)/C=C/c2ccccc2Cl)s1
growth inhibition / %: 23.1
--
compound: O=S(=O)(NO)c1ccc(Cl)cc1
growth inhibition / %: 6.7
--
compound: O=C(O)c1ccc(Br)cc1
growth inhibition / %: 9.8
--
compound: CC(=O)COc1ccccc1-c1ccccc1
growth inhibition / %: 8.6
--
compound: NC(N)=NC(Cc1ccccc1)C(=O)O (centres undefined)
growth inhibition / %: -12.4
--
compound: Cc1nc2ccccc2nc1CCC(=O)O
growth inhibition / %: -11.2
--
compound: O=C(Nc1ccc(N=C=S)cc1Cl)c1cc(Cl)cc(Cl)c1O
growth inhibition / %: 82.5
--
compound: CN(C(=O)c1ccc(Cl)c(Cl)c1)C(c1ccco1)P(=O)(c1ccccc1)c1ccccc1 (centres undefined)
growth inhibition / %: 50.4
--
compound: O=C(O)C(SSC(C(=O)O)(c1ccccc1)c1ccccc1)(c1ccccc1)c1ccccc1
growth inhibition / %: 12
--
compound: C=CC(=O)Nc1ccc(Br)cc1
growth inhibition / %: 8.65
--
compound: Cn1c2c(c3ccccc31)CCN=C2C1CCCOC1=O (centres undefined)
growth inhibition / %: -9.3
--
compound: CC(C)c1nc2c(c(=O)o1)CCS2
growth inhibition / %: -1.4
--
compound: O=C1NC(Nc2ccccc2)=NC(C(F)(F)F)(C(F)(F)F)N1
growth inhibition / %: 39.6
--
compound: CC[n+]1c(-c2ccccc2)c2cc(NCCCN)ccc2c2ccc(N)cc21
growth inhibition / %: 3.75
--
compound: c1cc2c3c(cccc3c1)N1C(=N2)Sc2nc3ccccc3nc21
growth inhibition / %: 13.6
--
compound: C(=N/NC(=N/N=C/c1ccccc1)N/N=C/c1ccccc1)/c1ccccc1
growth inhibition / %: 5.65
--
compound: NC(=O)C(c1ccccc1)c1ccnc2ccccc12 (centres undefined)
growth inhibition / %: 20.4
--
compound: O=C1NCCN(CCc2ccccc2)C1c1ccccc1 (centres undefined)
growth inhibition / %: 15
--
compound: CC(=O)OC1C/C(C)=C/CCC(C)/C=C/C2(C)CCC(C(C)(C)O)C12 (centres undefined)
growth inhibition / %: 14.1
--
compound: O=C(/C=C/c1ccccc1)NCCC1(O)C(=O)Nc2ccccc21 (centres undefined)
growth inhibition / %: -10.5
--
compound: CC(=O)/C(=C\c1ccc(C(F)(F)F)cc1)C(=O)CCN(C)C
growth inhibition / %: 3.25
--
compound: CC1(C)OC2OC(C3COS(=O)O3)C(Cl)C2O1 (centres undefined)
growth inhibition / %: -0.7
--
compound: O=c1cc(C(Br)(Br)Br)[nH]c2ccccc12
growth inhibition / %: 4.55
--
compound: CCN=C(c1ccccc1)N(O)c1ccccc1
growth inhibition / %: 7.7
--
compound: C=CC1C(C[C@@H]2c3cc(O)c(O)cc3CCN2C(C)=O)C(C(=O)OC)=CO[C@H]1OC1OC(CO)C(O)C(O)C1O (some centres undefined)
growth inhibition / %: -35
--
compound: CC(=O)Nc1c(I)c(C(=O)NC2C(O)OC(CO)C(O)C2O)c(I)c(N(C)C(C)=O)c1I (centres undefined)
growth inhibition / %: -21.5
--
compound: COc1ccc(C=Nc2ccc(Cl)cc2)cc1
growth inhibition / %: 2.55
--
compound: COC(=O)/C(C#N)=C\N1CCNC1=S
growth inhibition / %: -10.4
--
compound: CC(C)=C1CCC(CN2CCCC2)C1=O (centres undefined)
growth inhibition / %: 6.2
--
compound: CCOC(=O)C(C)N1CCCCCCC1 (centres undefined)
growth inhibition / %: -6.15
--
compound: CCCCOc1c(Cl)cc(Cl)cc1-c1ccccc1
growth inhibition / %: 18.5
--
compound: COC(=O)C1=C(C)N(NC(=O)c2ccccc2)C2(O)CCCC(=O)C12C (centres undefined)
growth inhibition / %: -6.05
--
compound: CN(C)CCSSCCN(C)C
growth inhibition / %: -2.55
